Values from the kinase profiling compilation of Christmann-Franck et al. (2016)

# TESTED SYSTEM: CDK5 (human) (UniProt Q00535)
# Sequence (Q00535 whole entry, looked up): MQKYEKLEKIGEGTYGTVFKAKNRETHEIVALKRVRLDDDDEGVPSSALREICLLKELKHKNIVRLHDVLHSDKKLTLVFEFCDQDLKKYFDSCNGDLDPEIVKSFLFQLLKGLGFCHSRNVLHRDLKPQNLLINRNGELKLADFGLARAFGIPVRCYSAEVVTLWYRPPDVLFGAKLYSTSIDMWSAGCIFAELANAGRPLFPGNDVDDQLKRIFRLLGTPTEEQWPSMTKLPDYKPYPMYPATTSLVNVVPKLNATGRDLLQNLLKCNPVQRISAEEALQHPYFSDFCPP
# ASSAY PROCEDURE: KINOMEscan competition binding
# EXPERIMENTAL CONTEXT: compound 10.0 µM
Each record here notes measured kinase still bound, per cent of control.
Provide the reading as a plain figure in %.

Record excerpt, results attached:
1) C[C@@H](Oc1cc(-n2cnc3ccc(CN4CCN(C)CC4)cc32)sc1C(N)=O)c1ccccc1C(F)(F)F | 100
2) OCCCNc1cc(-c2ccnc(Nc3cccc(Cl)c3)n2)ccn1 | 100
3) C=CC(=O)Nc1cccc(Oc2nc(Nc3ccc(N4CCN(C)CC4)cc3OC)ncc2Cl)c1 | 100
4) CCC(=O)N1CCN(c2ccc(-n3c(=O)ccc4cnc5ccc(-c6cnc7ccccc7c6)cc5c43)cc2C(F)(F)F)CC1 | 100

Shifting focus to the molecule that follows.
Using the record for Nc1ccc(-c2ccc3ncc4ccc(=O)n(-c5cccc(C(F)(F)F)c5)c4c3c2)cn1 , report its kinase still bound, per cent of control.
92

* * *

Each record here notes measured kinase still bound, per cent of control.
# TESTED SYSTEM: CAMKK1 (human)
# ASSAY PROCEDURE: KINOMEscan competition binding
# EXPERIMENTAL CONTEXT: compound 10.0 µM
Provide the reading as a plain figure in %.

Record excerpt, results attached:
1) Cc1ccc2nc(NCCN)c3ncc(C)n3c2c1 | 100
2) O=C(NOC[C@H](O)CO)c1ccc(F)c(F)c1Nc1ccc(I)cc1F | 100
3) Cn1c(=O)n(-c2ccc(C(C)(C)C#N)cc2)c2c3cc(-c4cnc5ccccc5c4)ccc3ncc21 | 100

Using the record for OCCCNc1cc(-c2ccnc(Nc3cccc(Cl)c3)n2)ccn1 , report its kinase still bound, per cent of control.
100

Using the record for Nc1ccc(-c2ccc3ncc4ccc(=O)n(-c5cccc(C(F)(F)F)c5)c4c3c2)cn1 , report its kinase still bound, per cent of control.
94

* * *

# TESTED SYSTEM: EPHA2 (human) (UniProt P29317)
# Sequence (P29317 whole entry, looked up): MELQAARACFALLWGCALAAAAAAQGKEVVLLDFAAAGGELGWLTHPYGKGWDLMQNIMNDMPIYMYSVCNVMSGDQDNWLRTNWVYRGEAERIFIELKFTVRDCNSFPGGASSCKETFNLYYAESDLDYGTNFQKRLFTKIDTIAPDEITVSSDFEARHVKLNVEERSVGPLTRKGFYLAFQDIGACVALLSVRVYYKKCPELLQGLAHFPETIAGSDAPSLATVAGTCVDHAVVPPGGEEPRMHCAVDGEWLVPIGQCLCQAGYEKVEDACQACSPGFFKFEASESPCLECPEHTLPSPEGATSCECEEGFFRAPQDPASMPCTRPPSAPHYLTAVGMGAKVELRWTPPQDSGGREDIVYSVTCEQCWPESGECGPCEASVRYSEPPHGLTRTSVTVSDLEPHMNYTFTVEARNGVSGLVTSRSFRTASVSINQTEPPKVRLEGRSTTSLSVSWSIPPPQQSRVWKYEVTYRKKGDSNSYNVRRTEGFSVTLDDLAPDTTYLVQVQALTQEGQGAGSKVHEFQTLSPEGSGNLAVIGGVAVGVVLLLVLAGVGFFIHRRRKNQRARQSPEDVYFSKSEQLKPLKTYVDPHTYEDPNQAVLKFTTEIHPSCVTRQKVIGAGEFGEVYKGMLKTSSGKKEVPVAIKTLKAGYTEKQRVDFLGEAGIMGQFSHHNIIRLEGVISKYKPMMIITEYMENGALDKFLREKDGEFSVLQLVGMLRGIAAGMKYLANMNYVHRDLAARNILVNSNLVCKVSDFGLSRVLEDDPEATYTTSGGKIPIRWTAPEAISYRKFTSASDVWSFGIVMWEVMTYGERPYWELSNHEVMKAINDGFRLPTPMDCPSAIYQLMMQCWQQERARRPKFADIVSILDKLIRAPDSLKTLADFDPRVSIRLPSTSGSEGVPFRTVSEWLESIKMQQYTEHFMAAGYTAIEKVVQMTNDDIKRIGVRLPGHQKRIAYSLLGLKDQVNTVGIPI
# ASSAY PROCEDURE: KINOMEscan competition binding
# EXPERIMENTAL CONTEXT: compound 10.0 µM
PARAMETER: kinase still bound, per cent of control (%)
Provide the reading as a plain figure in %.

Record excerpt, results attached:
1. Nc1ccc(-c2ccc3ncc4ccc(=O)n(-c5cccc(C(F)(F)F)c5)c4c3c2)cn1 | 99
2. O=C(NC1CC1)c1cccc(-c2ccc3c(NC(=O)C4CC4)n[nH]c3c2)c1 | 100
3. O=C1Nc2ccc(I)cc2/C1=C/c1cc(Br)c(O)c(Br)c1 | 83

Shifting focus to the compound that follows.
Missing value: kinase still bound, per cent of control, EPHA2 (human) (UniProt P29317), entry Cc1cc([C@@H](C)Nc2ccccc2C(=O)O)c2nc(N3CCOCC3)cc(=O)n2c1 . Fill in?
70

* * *

# TESTED SYSTEM: CDK13 (human)
# ASSAY PROCEDURE: KINOMEscan competition binding
# EXPERIMENTAL CONTEXT: compound 10.0 µM
PARAMETER: kinase still bound, per cent of control (%)
Provide the reading as a plain figure in %.

1) O=C(O)c1ccc(Nc2ncc3c(n2)-c2ccc(Cl)cc2C(c2c(F)cccc2F)=NC3)cc1 | 100
2) Nc1ccc(-c2ccc3ncc4ccc(=O)n(-c5cccc(C(F)(F)F)c5)c4c3c2)cn1 | 100
3) Cc1ccc(NC(=O)c2cccc(C(C)(C)C#N)c2)cc1Nc1ccc2ncn(C)c(=O)c2c1 | 100

Using the record for CCOc1cc2ncc(C#N)c(Nc3ccc(OCc4ccccn4)c(Cl)c3)c2cc1NC(=O)/C=C/CN(C)C , report its kinase still bound, per cent of control.
100

Using the record for Cc1ccc2nc(NCCN)c3ncc(C)n3c2c1 , report its kinase still bound, per cent of control.
4.7
